Data provenance is patent US6989371B1.

System: HBL100 (breast)
Experiment: MTT cytotoxicity assay, 72 hours (Example 13)
Type: cell-based, human
Conditions: HBL, 1 nM
Non-standard residues stand in square brackets, D forms with d. Residues, ends and D or L forms follow the SMILES beside them. Aib = CC(C)(N)C(=O)O
Lab note: compare Percent Cytotoxicity against 10%. Equal or greater, write true. Smaller, write false.

**Query** Item CC(C)C[C@H](NC(=O)[C@H](Cc1c[nH]cn1)NC(=O)C(C)(C)NC(=O)[C@@H](NC(=O)[C@H](C)NC(=O)[C@@H](Cc1c[nH]c2ccccc12)NC(=O)[C@H](CCC(N)=O)NC(=O)[C@H](N)Cc1ccccc1)C(C)C)C(N)=O [SEQ ID: 5, D-Phe-Gln-D-Trp-Ala-Val-Aib-His-Leu-NH2] (H-[dF]Q[dW]AV[Aib]HL-NH2; N-terminus assumed) with Percent Cytotoxicity of 10% or above?
**Result** true

**Query** Item CCCC(CCC)(NC(=O)[C@@H](NC(=O)[C@H](C)NC(=O)[C@@H](Cc1c[nH]c2ccccc12)NC(=O)[C@H](CCC(N)=O)NC(=O)[C@H](N)Cc1ccccc1)C(C)C)C(=O)N[C@@H](Cc1c[nH]cn1)C(=O)N[C@@H](CC(C)C)C(N)=O [SEQ ID: 8, D-Phe-Gln-D-Trp-Ala-Val-Dpg-His-Leu-NH2] with Percent Cytotoxicity of 10% or above?
**Result** true

**Query** Item CC[C@H](C)[C@H](NC(=O)[C@H](Cc1c[nH]cn1)NC(=O)C(C)(C)NC(=O)[C@@H](NC(=O)[C@H](C)NC(=O)[C@H](Cc1c[nH]c2ccccc12)NC(=O)[C@H](CCC(N)=O)NC(=O)[C@H](N)Cc1ccccc1)C(C)C)C(N)=O [SEQ ID: 7, D-Phe-Gln-Trp-Ala-Val-Aib-His-Ile-NH2] (H-[dF]QWAV[Aib]HI-NH2; N-terminus assumed) with Percent Cytotoxicity of 10% or above?
**Result** true

**Query** Item CC[C@H](C)[C@H](NC(=O)[C@H](Cc1c[nH]cn1)NC(=O)CNC(=O)[C@@H](NC(=O)C(C)(C)NC(=O)[C@H](Cc1c[nH]c2ccccc12)NC(=O)[C@H](CCC(N)=O)NC(=O)[C@H](N)Cc1ccccc1)C(C)C)C(N)=O [SEQ ID: 6, D-Phe-Gln-Trp-Aib-Val-Gly-His-Ile-NH2] (H-[dF]QW[Aib]VGHI-NH2; N-terminus assumed) with Percent Cytotoxicity of 10% or above?
**Result** false

**Query** Item CC(C)C[C@H](NC(=O)[C@H](Cc1c[nH]cn1)NC(=O)CNC(=O)[C@@H](NC(=O)C(C)(C)NC(=O)[C@H](Cc1c[nH]c2ccccc12)NC(=O)[C@H](CCC(N)=O)NC(=O)[C@H](N)Cc1ccccc1)C(C)C)C(N)=O [SEQ ID: 4, D-Phe-Gln-Trp-Aib-Val-Gly-His-Leu-NH2] (H-[dF]QW[Aib]VGHL-NH2; N-terminus assumed) with Percent Cytotoxicity of 10% or above?
**Result** true

----------
System: U87MG (Glioblastoma)
Assay: MTT cytotoxicity assay, 48 hours (Example 14)
Type: cell-based
Conditions: 100 nM
Non-standard residues stand in square brackets, D forms with d. Residues, ends and D or L forms follow the SMILES beside them. *: point of attachment. Octanoyl = CCCCCCCC(=O)*; Aib = CC(C)(N)C(=O)O
quantityKind: Percentage cytotoxicity (%)
Please reply with the bare figure in % and do not write the unit itself.

**Query** Given the entry CCCCCCCC(=O)N[C@H](Cc1ccccc1)C(=O)N[C@@H](CCC(N)=O)C(=O)N[C@@H](Cc1c[nH]c2ccccc12)C(=O)N[C@@H](C)C(=O)N[C@H](C(=O)NC(C)(C)C(=O)N[C@@H](Cc1c[nH]cn1)C(=O)N[C@@H](CC(C)C)C(N)=O)C(C)C [SEQ ID: 12] (Octanoyl-[dF]QWAV[Aib]HL-NH2) , report its measured Percentage cytotoxicity.
**Result** 13.1
